Here, each record is paired with measured Percent Effect data.
System: Trypanosoma cruzi
protocol_details: Trypanosoma cruzi phosphomannomutase and mannose-1-phosphate guanylyltransferase assay
Format: functional
Parameters: scale not given: direction of the effect not stated beside the values
settings: 10 µM
measured_quantity: Percent Effect (%)

compound=CCn1ccnc1CN1CCN(CCOc2ccccc2OC)CC1 result_number=6.39
compound=Cn1ccc(CN2CCC(c3ccccc3)CC2)cc1=O result_number=-0.374
compound="Cc1cc(C(=O)N2CCCC(n3cncn3)C2)c(C)n1C1CC1 (stereo not given)" result_number=1.54
compound=CNC(=O)[C@H]1C[C@H]2OCC[C@H]2N(Cc2ccc(C)o2)C1 result_number=-6.02
compound="CC(NC(=O)N(C)Cc1ccsc1)c1ccc2c(c1)CCC(=O)N2 (stereo not given)" result_number=1.13
